Data origin: PubChem BioAssay (NCI)

# System: SW-620 colon
# EXPERIMENTAL PROTOCOL: NCI-60 one-dose screen, 48 h (100 = growth as untreated, 0 = no growth, -100 = all killed)
# CONDITION SET: 10 µM unless noted
About 83,000 compounds went through this panel and 20% of them were active in at least one assay; those are over-represented in the sample as a whole.
Would you please tag the item Met when its growth is 70% or above, and Not met when it is below?

Entry CN1/C(=C\C=C\C2=[N+](C)c3ccccc3C2(C)C)C(C)(C)c2ccccc21 : is its growth no less than 70%?
Not met

Has O=c1[nH]c(-c2ccccn2)nc2sc3c(c12)CCCCC3 a recorded growth greater than or equal to 70%?
Not met

Please tell me: is the compound CCOC(=O)c1c2ncccc2n2c(=O)n(-c3ccc(Cl)cc3)nnc12 at or over 70% in terms of growth?
Met

Please check the record CCN(CC)CC#CCOC(=O)[C@]1(C)CCC[C@@]2(C)[C@H]1CC(C=O)=C1C=C(C(C)C)CC[C@@H]12 and state if its growth is at or above 70%.
Not met

Reported growth at or above 70%? CS(=O)(CCCCN=C=S)=NC(=O)c1c(F)c(F)c(F)c(F)c1F (stereo not drawn)
Met

Now for a further compound.
Decide: growth of CCCCCCCCCCCCCCCCNCCC[C@@H](C)[C@H]1CC[C@H]2[C@@H]3[C@H](OCCCN)C[C@@H]4C[C@H](OCCCN)CC[C@]4(C)[C@H]3C[C@H](OCCCN)[C@]12C >= 70%?
Not met

* * *

# System: UO-31 renal
# EXPERIMENTAL PROTOCOL: NCI-60 one-dose screen, 48 h (100 = growth as untreated, 0 = no growth, -100 = all killed)
# CONDITION SET: 10 µM unless noted
About 83,000 compounds went through this panel and 20% of them were active in at least one assay; those are over-represented in the sample as a whole.
What growth was measured for each of the following?
Answers are plain numbers, in %.

Solved entries (count: 6):
Give measured growth for Clc1ccc(-c2nnc(COc3ccccc3Cl)o2)cc1 (UO-31 renal).
77.5

Fetch value of growth on UO-31 renal for COc1ccc(-c2cn3c(-c4ccc(OC)cc4)cnc3c(Oc3ccc4c(C)cc(=O)oc4c3)n2)cc1 .
75

Recall the reported growth of CCOC(=O)C(=Cc1ccccc1F)C(=O)OCC when tested on UO-31 renal.
87.7

State measured growth of the compound O=C(CCCN1CCOCC1)Nc1ccc(Cn2nnc3c2C(=O)c2nnn(Cc4ccc(NC(=O)CCCN5CCOCC5)cc4)c2C3=O)cc1 with UO-31 renal.
103

Quote growth with test system UO-31 renal for O=C(Nc1cccc2[nH]c(C(F)(F)F)nc12)c1ccc(Br)cc1F
10.9

Enter measured growth, system UO-31 renal, for the compound shown: CN(CC(=O)N(Cc1ccc(C2CCCCC2)cc1)c1ccc(C(=O)NO)cc1)S(=O)(=O)c1c(F)c(F)c(F)c(F)c1F
69.1

// input: 2 compounds below; output: growth for each
1. Cn1cc(-c2csc(-c3cn(C)c4ncccc34)n2)c2ccccc21
2. Nc1ccc2c(c1)C(=O)NC2=O

51.2
70.8

Give growth for each of the items listed below.
1. COc1ccc(CN(c2ccc(C)cc2)C2OC(=O)c3ccccc32)cc1OC (stereo not given)
2. CSc1ccc(N=C=C(c2ccccc2)c2ccccc2)cc1

1: 94.3; 2: 83.5
